test system: MRC5 cells; test: Cell viability assay in MRC5 cells (MTT); conditions: 100 nM
Below is a list of entries, each paired with its recorded Cell viability at 100 nM (%) value.
READOUT: Cell viability at 100 nM (%)

• COC(=O)c1cc2c(cc1C)/C(=C(/Nc1ccc(C(=O)N(C)OCCN3C[C@@H]4C[C@H]3CN4)cc1)c1ccccc1)C(=O)N2 [Example 59] = 123.5
• COC(=O)c1ccc2c(c1)NC(=O)/C2=C(\Nc1ccc(C(=O)NOCCN2CCC(N(C)C)CC2)cc1)c1ccccc1 [Example 47] = 112
• COC(=O)c1ccc2c(c1)NC(=O)/C2=C(\Nc1ccc(C(=O)N2CCN(C)CCO2)cc1)c1ccccc1 [Example 24] = 85.4
• COC(=O)c1cc2c(cc1C)/C(=C(/Nc1ccc(C(=O)NOCCN(C)C)cc1)c1ccccc1)C(=O)N2 [Example 26] = 111.8
• COC(=O)c1cc2c(cc1C)/C(=C(/Nc1ccc(C(=O)NOCCCN3CCN(C)CC3)cc1)c1ccccc1)C(=O)N2 [Example 64] = 86.5
• CNC(=O)CN1CCN(CCONC(=O)c2ccc(N/C(=C3\C(=O)Nc4cc(C(=O)OC)c(C)cc43)c3ccccc3)cc2)CC1 [Example 73] = 82.9
